Cited source: patent US20150105252A1

- System: crabgrass, large
- testProtocol: Test A postemergence
- Type: in vivo, Digitaria sanguinalis
- conditionParameters: Postemergence, 500 g ai/ha; 0 to 100 scale (0 no effect, 100 complete control)
Provide the recorded Crabgrass, Large plant response rating for the entries that follow.

CCCNC(=O)c1cc(CC)n(Oc2cccc(C(F)(F)F)c2)n1 [Compound 216] : 70

List reported Crabgrass, Large plant response rating for each of these molecules:
1. CCc1cc(C(=O)NC(C)C)nn1Cc1ccnc(OCC(F)(F)F)c1 [Compound 149]
2. CCCc1cc(C(=O)NC2CC2)nn1Cc1cc(C(F)(F)F)nn1C [Compound 202]
3. CCCNC(=O)c1cc(CC)n(Oc2cccc(OC(F)(F)F)c2)n1 [Compound 219]
4. CCc1cc(C(=O)NCC#N)nn1Cc1ccnc(C(F)(F)F)c1 [Compound 147]

A.
1: 90; 2: 100; 3: 70; 4: 40

---

- System: ryegrass, Italian
- testProtocol: Test C postemergence
- Type: in vivo, Lolium multiflorum
- conditionParameters: postemergence; 125 g ai/ha; scale 0 to 100, 0 no effect, 100 complete control
experimentalEndpoint: Plant response rating, Ryegrass, Italian
Give bare numbers.

Below are worked cases with known answers.
CCc1cc(C(=O)NC2CC2)nn1Cc1ccnc(Br)c1 [Compound 220] : 5
CCCc1cc(C(=O)NCC(F)(F)F)nn1Cc1ccnc(OC(F)F)c1 [Compound 127] : 10
CCCc1cc(C(=O)NC2CC2)nn1Cc1ccnc(OC(F)F)c1 [Compound 205] : 5
CCCNC(=O)c1cc(OCC)n(Cc2ccnc(OC(F)F)c2)n1 [Compound 136] : 5
CCCNC(=O)c1cc(CCF)n(Cc2ccnc(C(F)(F)F)c2)n1 [Compound 177] : 5

List reported Plant response rating, Ryegrass, Italian for each of these molecules:
1. CCONC(=O)c1cc(CC)n(Cc2ccnc(C(F)(F)F)c2)n1 [Compound 77]
2. CCCNC(=O)c1cc(CC)n(Cc2ccnc(C(F)(F)F)c2)n1 [Compound 75]

A.
1: 5; 2: 10

---

- Tested on: nutsedge, yellow
- testProtocol: Test C postemergence
- Format: in vivo, Cyperus esculentus
- conditionParameters: postemergence, 250 g ai/ha; scale 0 to 100 (0 no effect, 100 complete control)
Quick rule for you: Plant response rating, Nutsedge, Yellow at 20 or higher means criterion met, lower means criterion not met.

// below: answered molecules
CCc1cc(C(=O)NCC(F)(F)F)nn1Cc1nc(C(F)(F)F)nn1C : criterion met
CCOc1cc(C(=O)NOC(C)C)nn1Cc1ccnc(C(F)(F)F)c1 : criterion not met
CCCc1cc(C(=O)NC2CC2)nn1Cc1ccnc(OC(F)F)c1 : criterion not met
CCONC(=O)c1cc(CC)n(Cc2cccc(OC(F)(F)F)c2)n1 : criterion not met
CCOc1cc(C(=O)NCC(F)(F)F)nn1Cc1ccnc(OC(F)F)c1 : criterion met
CCc1cc(C(=O)NOC(C)C)nn1Cc1ccnc(OC(F)F)c1 : criterion not met
CCc1cc(C(=O)NCC(F)(F)F)nn1Cc1ccnc(Br)c1 : criterion not met
CCCc1cc(C(=O)NC(C)C)nn1Cc1ccnc(C(F)(F)F)c1 : criterion not met

Q. Could you verify whether the entry `O=C(NC1CC1)c1cc(CCCl)n(Cc2ccnc(C(F)(F)F)c2)n1` shows Plant response rating, Nutsedge, Yellow of no less than 20?
A. criterion met

Q. Could you verify whether the entry `CCCc1cc(C(=O)NC(C)C)nn1Cc1cc(C(F)(F)F)nn1C` shows Plant response rating, Nutsedge, Yellow of no less than 20?
A. criterion not met

Q. Could you verify whether the entry `CCc1cc(C(=O)NCC(F)(F)F)nn1Cc1cc(C(F)(F)F)nn1C` shows Plant response rating, Nutsedge, Yellow of no less than 20?
A. criterion met

Q. Could you verify whether the entry `CCc1cc(C(=O)NC2CC2)nn1Cc1ccnc(Br)c1` shows Plant response rating, Nutsedge, Yellow of no less than 20?
A. criterion not met
